Biological target: T1, hCDH6aa54-615 APPavi (human, UniProt P55285 54-615)
T1 sequence: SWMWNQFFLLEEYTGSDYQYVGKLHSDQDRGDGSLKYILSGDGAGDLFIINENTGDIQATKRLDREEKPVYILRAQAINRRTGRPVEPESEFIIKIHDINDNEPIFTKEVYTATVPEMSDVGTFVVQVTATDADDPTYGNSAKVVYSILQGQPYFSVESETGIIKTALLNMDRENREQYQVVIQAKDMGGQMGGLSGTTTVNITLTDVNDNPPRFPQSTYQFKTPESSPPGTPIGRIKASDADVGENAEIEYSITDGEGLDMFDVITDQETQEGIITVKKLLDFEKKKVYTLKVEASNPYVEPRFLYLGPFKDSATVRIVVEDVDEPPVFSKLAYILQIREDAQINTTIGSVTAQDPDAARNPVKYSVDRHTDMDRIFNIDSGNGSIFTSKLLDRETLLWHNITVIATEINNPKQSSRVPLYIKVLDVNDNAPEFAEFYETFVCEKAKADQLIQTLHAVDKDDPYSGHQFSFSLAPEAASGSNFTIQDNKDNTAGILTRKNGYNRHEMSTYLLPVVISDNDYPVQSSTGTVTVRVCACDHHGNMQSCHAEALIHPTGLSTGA
Test: SPR binning
PROPERTY: response of secondary antibody on primary antibody-CDH6 complex

[
  {
    "BINDER": "NOV0719 (antibody, human IgG1, kappa, V domains shown) VH: QVQLLESGGGLVQPGGSLRLSCAASGFTFSSHWVHWVRQAPGKGLEWVSVISYMGSSTYYADSVKGRFTISRDNSKNTLYLQMNSLRAEDTAVYYCARGSYDMAFDVWGQGTLVTVSS VL: DIQMTQSPSSLSASVGDRVTITCRASQSIVSYLNWYQQKPGKAPKLLIYDASSLQSGVPSRFSGSGSGTDFTLTISSLQPEDFATYYCQQSGSHSITFGQGTKVEIKR",
    "TEST_VALUE": 13.5
  },
  {
    "BINDER": "NOV1127 (antibody, human IgG1, kappa, V domains shown) VH: QVQLQQSGPGLVKPSQTLSLTCAISGDSVSSQSAAWNWIRQSPSRGLEWLGRIYYRSKWYNDYAVSVKSRITINPDTSKNQFSLQLNSVTPEDTAVYYCARERSYRDYFDYWGQGTLVTVSS VL: DIQMTQSPSSLSASVGDRVTITCRASQGIFTYLNWYQQKPGKAPKLLIYAASTLQSGVPSRFSGSGSGTDFTLTISSLQPEDFATYYCQQYYSTSLTFGQGTKVEIKR",
    "TEST_VALUE": 25.4
  },
  {
    "BINDER": "NOV0712 (antibody, human IgG1, kappa, V domains shown) VH: QVQLLESGGGLVQPGGSLRLSCAASGFTFSSHGMHWVRQAPGKGLEWVSVISGSGSNTGYADSVKGRFTISRDNSKNTLYLQMNSLRAEDTAVYYCARQWGSYAFDSWGQGTLVTVSS VL: DIQMTQSPSSLSASVGDRVTITCRASQSISSYLNWYQQKPGKAPKLLIYAVSTLQSGVPSRFSGSGSGTDFTLTISSLQPEDFATYYCQQSGTFPPTTFGQGTKVEIKR",
    "TEST_VALUE": 5.12
  },
  {
    "BINDER": "NOV1132 (antibody, human IgG1, lambda, V domains shown) VH: QVQLQQSGPGLVKPSQTLSLTCAISGDSVSSQSAGWNWIRQSPSRGLEWLGRIYYRSKWYNDYAVSVKSRITINPDTSKNQFSLQLNSVTPEDTAVYYCAREKYTVSFYDFFDYWGQGTLVTVSS VL: SYELTQPLSVSVALGQTARITCSGDNIGSMTAHWYQQKPGQAPVLVIYDKNERPSGIPERFSGSNSGNTATLTISRAQAGDEADYYCQSWDDSYTSVVFGGGTKLTVLG",
    "TEST_VALUE": 17.9
  },
  {
    "BINDER": "NOV0692 (antibody, human IgG1, lambda, V domains shown) VH: QVQLVESGGGLVKPGGSLRLSCAASGFTFSRYWMDWVRQAPGKGLEWVGRIKSKANGGITDYAAPVKGRFTISRDDSKNTLYLQMNSLKTEDTAVYYCARGMTFLGIWGQGTLVTVSS VL: DIELTQPPSVSVSPGQTASITCSGDSIGSKYAQWYQQKPGQAPVLVIYYNSERPSGIPERFSGSNSGNTATLTISGTQAEDEADYYCQSWDGQSTIRVFGGGTKLTVLG",
    "TEST_VALUE": -2.84
  },
  {
    "BINDER": "NOV0710 (antibody, human IgG1, kappa, V domains shown) VH: QVQLLESGGGLVQPGGSLRLSCAASGFTFSSYAMSWVRQAPGKGLEWVSVIRSSGSSTYYADSVKGRFTISRDNSKNTLYLQMNSLRAEDTAVYYCARGGGYFDYWGQGTLVTVSS VL: DIQMTQSPSSLSASVGDRVTITCRASQSISLWLNWYQQKPGKAPKLLIYAASTLQSGVPSRFSGSGSGTDFTLTISSLQPEDFATYYCQQYYTSPYTFGQGTKVEIKR",
    "TEST_VALUE": 8.84
  },
  {
    "BINDER": "NOV1126 (antibody, human IgG1, lambda, V domains shown) VH: EVQLLESGGGLVQPGGSLRLSCAASGFTFSDHAIDWVRQAPGKGLEWVSVIAGSGSITYYADSVKGRFTISRDNSKNTLYLQMNSLRAEDTAVYYCARDTGVYREYMDVWGQGTLVTVSS VL: SYELTQPLSVSVALGQTARITCSGDAIGTKFAHWYQQKPGQAPVLVIYYDHERPSGIPERFSGSNSGNTATLTISRAQAGDEADYYCYSRASSNLVFGGGTKLTVLG",
    "TEST_VALUE": 18.7
  }
]
